# method description: Product stability in DPBS at 25° C.
# Assay type: physicochemical
# condition info: DPBS (+Ca2+, +Mg2+), 1 h, mean ± SD, normalized to fraction immediately after preparation
endpoint label: Fraction of radioligand in DPBS at 25° C., 1 h (%)

1. CC1(C)CN(CCCCC(=O)N[C@H](Cc2ccc(O)c(I)c2)C(=O)N[C@H](Cc2ccccc2)C(=O)N[C@H](CCCCNC(=O)CCCCCCC(=O)NCCCC[C@H](NC(=O)N[C@@H](CCC(=O)O)C(=O)O)C(=O)O)C(=O)O)CC[N]2CC(C)(C)[S][99Tc]2(=[O])[S]1 (stereo partly drawn) [[^99mTc]TcO-4] = 88.4
2. CC1(C)CN(CCCCC(=O)N[C@@H](CCCCNC(=O)CCCCCCC(=O)NCCCC[C@H](NC(=O)N[C@@H](CCC(=O)O)C(=O)O)C(=O)O)C(=O)O)CC[N]2CC(C)(C)[S][99Tc]2(=[O])[S]1 (stereo partly drawn) [[^99mTc]TcO-3] = 98.2
3. O=C(O)CC[C@H](NC(=O)N[C@@H](CCCCNC(=O)CCCCCCC(=O)NCCCC[C@@H](NC(=O)[C@H](CCC(=O)O)NC(=O)[C@H](CCC(=O)O)NC(=O)CCC(=O)NCCCN1CC[S][99Tc]2(=[O])[S]CC[N]2CC1)C(=O)O)C(=O)O)C(=O)O (stereo partly drawn) [[^99mTc]TcO-6] = 75.9
